Origin of measurements: PubChem BioAssay

protocol-text: PSAC antagonists in infected red cells, primary screen, cell-based, P. falciparum Indochina, OD700, 1 h (AID 1154)
recorded-conditions: P. falciparum Indochina infected RBC osmotic lysis, called active from +8 up or from −8 down
Activity calls are given as the source filed them.
Respond with a class label; see 1 for active, -1 for inactive

molecule	qualitative-label
CCCCC(CC)C(O)C1C=CC2C(=O)N(c3ccccc3)C(=O)C2N1Nc1ccccc1 (stereo not drawn)	-1

Query string: For COCCOC(=O)N1C(=O)[C@@]2(c3ccccc31)[C@H](C(=O)NC[C@H](O)c1ccccc1)[C@H]1C(=O)O[C@H](c3ccccc3)[C@H](c3ccccc3)N1[C@@H]2c1ccc(OCCO)cc1 , what call appears in the results of this test?
Result string: -1

Query string: Field: outcome | Entry: CC(C)NC(=O)[C@@]1(Cc2ccccc2I)c2ccccc2C(=O)N(Cc2ccccc2)[C@H]1c1ccc(CO)cc1
Result string: -1

Query string: Check the results log: what was the call for COc1ccc(CCNC(=O)[C@@]2(Sc3ccc(C)cc3)CC(=O)N(Cc3ccccc3Cl)[C@@H]2c2ccc(CO)cc2I)cc1 ?
Result string: 1

----------
measurement-target: Follistatin (Homo sapiens) (UniProt P19883)
Sequence (P19883 whole entry, looked up): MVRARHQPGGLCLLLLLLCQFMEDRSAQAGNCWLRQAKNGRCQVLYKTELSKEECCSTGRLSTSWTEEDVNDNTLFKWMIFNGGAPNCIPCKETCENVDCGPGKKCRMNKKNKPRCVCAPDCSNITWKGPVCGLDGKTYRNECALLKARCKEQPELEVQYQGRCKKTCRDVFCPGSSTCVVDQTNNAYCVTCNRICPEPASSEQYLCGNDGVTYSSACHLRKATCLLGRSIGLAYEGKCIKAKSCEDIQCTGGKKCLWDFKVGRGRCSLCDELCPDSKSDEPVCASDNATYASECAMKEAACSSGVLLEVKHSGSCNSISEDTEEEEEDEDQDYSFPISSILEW
protocol-text: follistatin binders on small-molecule microarrays, primary screen, biochemical, small-molecule microarray, 635/667 nm fluorescence (AID 1132)
recorded-conditions: FST binding, 635 nm fluorescence, higher = more signal
Think of 1 as a floor: if composite z-score stands on it or above, it is yes; beneath it, no.

# example entries with known answers
record-smiles	qualitative-label
COCCOC(=O)N1C(=O)[C@@]2(c3cc(C#CC4(O)CCCCCC4)ccc31)[C@H](C(=O)N1CCCCCCC1)[C@H]1C(=O)O[C@H](c3ccccc3)[C@H](c3ccccc3)N1[C@@H]2c1ccccc1OCCO	yes
COC(=O)[C@@]1(Cc2ccccc2)[C@H]2c3cc(C(=O)N(C)C)n(Cc4c(-c5ccccc5)noc4C)c3C[C@H]2CN1C(=O)c1ccccc1	no
C=C[C@H](COC(C)=O)N(Cc1ccc(OC(C)=O)c(OC)c1)S(=O)(=O)c1ccc(Br)cc1	yes
C=CCNC(=O)[C@@H]1[C@H]2C(=O)O[C@H](c3ccccc3)[C@H](c3ccccc3)N2[C@H](c2ccc(O)cc2)[C@@]12C(=O)N(C(=O)OCCOC)c1ccccc12	no
COc1ccc([Si](C)(C)[C@@H]2[C@@H](CC(=O)N(CCO)Cc3ccccc3)O[C@]3(C(=O)N(C)c4ccccc43)[C@H]2C)cc1	yes

Pending compound:
Query string: For this compound, is measured composite z-score 1 or higher? CC(C)C[C@@H]1NC(=O)[C@@H]2C[C@H](C(=O)NCCCCCC[N+](C)(C)C)[C@H](c3ccc(O)cc3)N2C1=O
Result string: yes

----------
measurement-target: Streptavidin (Streptomyces avidinii)
protocol-text: streptavidin binders on small-molecule microarray, primary screen, artefact control for SMM compound annotation, biophysical, 635/667 nm fluorescence (AID 1147);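 also: signal reflects streptavidin binding to arrayed compounds as a control protein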
recorded-conditions: streptavidin binding, higher = more signal
test-readout: composite z-score
Note: the reply should be a number with no unit written.

Illustrative cases are given below, each with its answer.
compound	composite z-score
COCCOC(=O)N1C(=O)[C@@]2(c3cc(C#CCC(C(=O)OC)C(=O)OC)ccc31)[C@H](C(=O)N1CCN(c3ncccn3)CC1)[C@H]1C(=O)O[C@H](c3ccccc3)[C@H](c3ccccc3)N1[C@@H]2c1ccc(OCCO)cc1	0.392
COC(=O)c1c(CC[C@@H](CO)NC(=O)N[C@@H](Cc2ccccc2)Cn2cc(C3(O)CCCCC3)nn2)oc(C(C)=O)c1C(=O)OC	1.16
CCN(CC)c1ccc(N2CC=CC34O[C@@H]5/C=C\CCCOC(=O)C5[C@H]3C(=O)N(C(CO)C(C)C)[C@@H]4C2=O)cc1 (stereo partly specified)	-0.819

Query string: Param item = O=C1C[C@]2(c3ccc([N+](=O)[O-])cc3)C(=O)N(CC(F)(F)F)c3cc(CO)ccc3[C@H]2N1CC12CC3CC(CC(C3)C1)C2 ; retrieve measured composite z-score.
Result string: -0.143

Query string: composite z-score lookup needed for COCCCNC(=O)[C@@]1(C)c2ccccc2C(=O)N(Cc2cc(C(F)(F)F)cc(C(F)(F)F)c2)[C@H]1c1ccc(CO)cc1 , thanks.
Result string: -0.673

Query string: So what's the measured composite z-score for this one? CN(C)CCCCNC(=O)[C@H]1C[C@H]2C(=O)N[C@@H](Cc3ccccc3)C(=O)N2[C@H]1c1ccc(O)cc1
Result string: 1.34
